System: cultured human mast cells (CHMC)
Method description: CHMC low cell density IgE activation: tryptase assay
Type: cell-based
Condition parameters: low cell density; read-out: CHMC anti-IgE Tryptase
pIC50: −log10 of the molar value.
Reported endpoint: pIC50

CCOC(=O)CCn1ncc2cc(Nc3ncc(F)c(Nc4ccc(Cl)c(Cl)c4)n3)ccc21 [Compound R935389]
6.06
Fc1cc(Nc2nc(Nc3ccc4[nH]ncc4c3)ncc2F)ccc1Cl [Compound R935415]
6.63
CCN(CC)CCCNc1ncc(F)c(Nc2ccc3c(c2)NC(=O)[C@H](C)O3)n1 [Compound R950471]
4.30
OCCCn1ncc2cc(Nc3ncc(F)c(Nc4ccc(Cl)c(Cl)c4)n3)ccc21 [Compound R935391]
6.67
Cc1cc(Nc2ncc(F)c(Nc3ccc4c(c3)NC(=O)C(C)(C)O4)n2)cc(C)c1C [Compound R926994]
7.21
COc1cc(Nc2nc(Nc3ccc4cn(C)nc4c3)ncc2F)ccc1F [Compound R935450]
6.31
CNC(=O)COc1cccc(Nc2ncc(F)c(Nc3cccc(NC(C)=O)n3)n2)c1 [Compound R927093]
6.52
CC(C)(C)OC(=O)NCc1ccc(Nc2ncc(F)c(Nc3ccc4c(c3)NC(=O)C(F)(F)O4)n2)cc1 [Compound R950464]
6.61

###

Test system: differentiated human macrophages
Method description: Macrophage activation, IgG stimulation: IL-6
Assay type: cell-based
Condition parameters: stimulus (IgG or LPS) not given; read-out: Monocytes/Macrophage IL-6 IC50
pIC50: −log10 of the molar value.
Reported endpoint: pIC50

Cc1cccc(C)c1Nc1ncc(F)c(Nc2ccc3c(c2)NC(=O)C(C)(C)O3)n1
5.25
Cn1ncc2ccc(Nc3ncc(F)c(Nc4ccc5c(c4)NC(=O)C(C)(C)O5)n3)cc21
7.01
COc1ccc(Nc2nc(Nc3ccc4cc[nH]c4c3)ncc2F)cc1Cl
5.12
OCCCn1ncc2cc(Nc3ncc(F)c(Nc4ccc(Cl)c(Cl)c4)n3)ccc21
6.02
CNC(=O)COc1cccc(Nc2ncc(F)c(Nc3ccc4c(n3)NC(=O)C(C)(C)O4)n2)c1
7.72

###

Tested target: Syk kinase (Homo sapiens, UniProt P43405)
Method description: Syk kinase biochemical fluorescence polarization assay
Condition parameters: isolated Syk kinase, fluorescence polarization, 4 uM ATP
Binned IC50; ranges: lower bin = under 0.1 µM, middle bin = from 0.1 µM up to 3 µM, upper bin = 3 µM and over

COc1ccc(Nc2ncc(F)c(Nc3ccc4c(n3)NC(=O)CO4)n2)cc1 [Compound R945404]
upper bin
CC1(C)Oc2ccc(Nc3nc(Nc4cccc(OCC(=O)NC5CCC5)c4)ncc3F)nc2NC1=O [Compound R945424]
middle bin
CCOC(=O)c1cnc(Nc2cccc3cn[nH]c23)nc1Nc1cccc2cn[nH]c12 [Compound R926321]
upper bin
CN(C)C(=O)C1Cc2cc(Nc3ncc(F)c(Nc4ccc5c(c4)NC(=O)C(F)(F)O5)n3)ccc2O1 (stereo not drawn) [Compound R926983]
lower bin
CN1CCN(c2ccc(Nc3ncc(F)c(Nc4ccc5c(n4)NC(=O)CO5)n3)cc2)CC1 [Compound R945426]
middle bin
Cn1ncc2cc(Nc3ncc(F)c(Nc4ccc(Cl)nc4)n3)ccc21 [Compound R935375]
middle bin
COc1ccc(Nc2ncc(F)c(Nc3ccc4c(c3)NC(=O)[C@@H](C)O4)n2)cc1Cl [Compound R909322]
middle bin
CC1(C)Oc2ccc(Nc3nc(Nc4cc(Cl)c(O)c(Cl)c4)ncc3F)cc2NC1=O [Compound R927051]
lower bin
CNC(=O)COc1cccc(Nc2ncc(F)c(Nc3ccc4c(c3)C(O)CCO4)n2)c1 (stereo not drawn) [Compound R950349]
lower bin
CC1(C)Oc2ccc(Nc3nc(Nc4cccc(Cl)c4)ncc3F)nc2NC1=O [Compound R940386]
upper bin
CC1(C)Oc2ccc(Nc3nc(Nc4cccc(O)c4)ncc3F)nc2NC1=O [Compound R940382]
middle bin
